System: decay organisms
ASSAY_PROCEDURE: Soil contact veneer exposure test: dip-treated Scots pine sapwood veneers in damp compost, pulled by hand weekly until failure
EXPERIMENTAL_SETUP: Example 7; solutions in acetone; single biocide at 0.8%
Simple rule here: Calculated half life less than 6 weeks is Met, otherwise Not met.

COMPOUND	GROUP_LABEL
N#Cc1c(Cl)c(Cl)c(Cl)c(C#N)c1Cl	Not met
CC(Cc1ccc(C(C)(C)C)cc1)CN1C[C@@H](C)O[C@@H](C)C1 (stereo partly drawn)	Met
CC(C1CC1)C(O)(Cn1cncn1)c1ccc(Cl)cc1 (stereo not drawn)	Met

Consider CCCC1COC(Cn2cncn2)(c2ccc(Cl)cc2Cl)O1 (stereo not drawn) . Does its Calculated half life lie strictly below 6 weeks? Met

Consider CCCCCCCCn1sc(Cl)c(Cl)c1=O . Does its Calculated half life lie strictly below 6 weeks? Not met

Consider Oc1ccc(Cl)cc1Cc1cc(Cl)ccc1O [Dichlorophen, 2,2′-methylenebis [4-chlorophenol]] . Does its Calculated half life lie strictly below 6 weeks? Not met
